In this section we review reported PBMC (fold improvement in inhibition of IL2-induced PHA blast proliferation) values for a set of binders.
Target: T1, human CD25 on cells (human, UniProt P01589 22-272)
T1 sequence (looked up): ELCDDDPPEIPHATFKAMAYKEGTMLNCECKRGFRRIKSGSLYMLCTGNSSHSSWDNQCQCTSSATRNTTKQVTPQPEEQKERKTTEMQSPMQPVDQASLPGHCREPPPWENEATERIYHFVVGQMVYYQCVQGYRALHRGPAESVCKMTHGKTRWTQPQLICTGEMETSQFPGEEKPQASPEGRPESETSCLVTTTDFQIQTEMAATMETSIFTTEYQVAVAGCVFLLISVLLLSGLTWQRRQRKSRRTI
Experiment: cell-based or functional assay
Answer with a number only, understood to be in fold.

Before answering, review these 3 worked examples.
1) Variant C40 (antibody, name in Kabat numbering, V domains shown, Isotype as printed: G2M3.QL) VH: QVQLVQSGAEVKKPGSSVKVSCKASGYTFTSYRMHWVRQAPGQGLEWMGYISPRKGYTEYNQKFKDKATITADESTNTAYMELSSLRSEDTAVYYCARGGGVFDYWGQGTLVTVSS VL: DIQMTQSPSTLSASVGDRVTITCSASSSISYMHWYQQKPGKAPKLLIYTTSELASGVPARFSGSGSGTEFTLTISSLQPDDFATYYCHQRSTYPLTFGQGTKVEVK: 7.7
2) Variant C35 (antibody, name in Kabat numbering, V domains shown, Isotype as printed: G2M3.QL) VH: QVQLVQSGAEVKKPGSSVKVSCKASGYTFTSYRMHWVRQAPGQGLEWMGYIKPSRGYTEYNQKFKDKATITADESTNTAYMELSSLRSEDTAVYYCARGGGVFDYWGQGTLVTVSS VL: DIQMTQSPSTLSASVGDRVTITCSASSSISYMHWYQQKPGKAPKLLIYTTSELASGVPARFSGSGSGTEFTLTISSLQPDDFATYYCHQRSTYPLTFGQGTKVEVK: 7.2
3) Variant C28 (antibody, V domains shown, Isotype as printed: G2M3.QL) VH: QVQLVQSGAEVKKPGSSVKVSCKASGYTFTSYRMHWVRQAPGQGLEWMGYINPSSGYTEYNQKFKDKATITADESTNTAYMELSSLRSEDTAVYYCARGGGVFDYWGQGTLVTVSS VL: DIQMTQSPSTLSASVGDRVTITCSASSKISYMHWYQQKPGKAPKLLIYTTSDLASGVPARFSGSGSGTEFTLTISSLQPDDFATYYCHQRSTYPLTFGQGTKVEVK: 5.8

stdin: I would be grateful if you could share the reported PBMC (fold improvement in inhibition of IL2-induced PHA blast proliferation) for Variant C34 (antibody, V domains shown, Isotype as printed: G2M3.QL) VH: QVQLVQSGAEVKKPGSSVKVSCKASGYTFTSYRMHWVRQAPGQGLEWMGYIKPSRGYTEYNQKFKDKATITADESTNTAYMELSSLRSEDTAVYYCARGGGVFDYWGQGTLVTVSS VL: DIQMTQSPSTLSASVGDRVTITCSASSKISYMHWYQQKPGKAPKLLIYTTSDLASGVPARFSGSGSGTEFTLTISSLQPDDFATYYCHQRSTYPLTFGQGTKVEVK .
stdout: 6.4
